Where do these numbers come from? They come from patent US4556715A.

The entries below are paired with their reported Relative liver weight.
Test system: serum and liver lipid levels in normal rats
Assay: Effects on relative liver weight, serum and liver lipid levels in normal rats (100 mg/kg, 7 days)
Assay type: in vivo, Male Wistar strain rats
Conditions: Table 1; 100 mg/kg p.o. 7 days; mean ± S.E. (n = 6)
# output: bare number, implied unit g/100 g b.w.

compound=O=C(OCc1ccc(OCCc2ccc(Cl)cc2)cc1)c1cccnc1 reported_measurement=3.17
compound=O=C(OCc1ccc(OCCCCc2ccc(Cl)cc2)cc1)c1cccnc1 reported_measurement=3.16
compound="O=C(OCc1ccc(OCc2ccc(Cl)cc2)cc1)c1cccnc1 [KCD-232, 4-(4-chlorobenzyloxy)benzyl nicotinate, reference compound]" reported_measurement=3.20

Then there is this compound:
# Relative liver weight lookup, item O=C(OCc1ccc(OCCCc2ccc(Cl)cc2)cc1)c1cccnc1
3.20

* * *

Tested on: serum and liver lipid levels in rats
Test: Serum and liver lipid levels and relative liver weight in rats (100 mg/kg, 10 days)
Type: in vivo, Male rats of the Wistar strain
Details: Rattus norvegicus, po, Table 2; in parentheses; Control = (100); read-out: Liver lipid levels Ch, relative to Control (100)
Protocol: (2) Male rats of the Wistar strain weighing 160-180 g were fed a stock deit (CE-2, Japan CLEA, Tokyo) and water ad libitum. The present compounds and KCD-232 were suspended, respectively, in a 0.5% of CMC solution and give orally to rats once a day at a dose of 100 mg/kg b.w. for 10 days. Control rats were received the 0.5% CMC solution alone. […] Total lipids were extracted from the serum and liver, and the levels of Ch, TG and PL were determined colorimetrically.
metric: response vs control in vivo at 100 mg/kg (%)
# output: bare number, implied unit %

compound=O=C(OCCCCc1ccc(OCCCCc2ccc(Cl)cc2)cc1)c1cccnc1 reported_measurement=79.3
compound=O=C(OCc1ccc(OCCCCCCc2ccc(Cl)cc2)cc1)c1cccnc1 reported_measurement=94.4
compound=O=C(OCc1ccc(OCCc2ccc(Cl)cc2)cc1)c1cccnc1 reported_measurement=96.7
compound="O=C(OCc1ccc(OCc2ccc(Cl)cc2)cc1)c1cccnc1 [KCD-232, 4-(4-chlorobenzyloxy)benzyl nicotinate, reference compound]" reported_measurement=104
compound=O=C(OCc1ccc(OCCCCc2ccc(Cl)cc2)cc1)c1cccnc1 reported_measurement=94.4
compound=O=C(OCCc1ccc(OCc2ccc(Cl)cc2)cc1)c1cccnc1 reported_measurement=78.3

# response vs control in vivo at 100 mg/kg lookup, item O=C(OCc1ccc(OCCCc2ccc(Cl)cc2)cc1)c1cccnc1
101

# response vs control in vivo at 100 mg/kg lookup, item O=C(OCCCCc1ccc(OCc2ccc(Cl)cc2)cc1)c1cccnc1
70.1

# response vs control in vivo at 100 mg/kg lookup, item O=C(OCCc1ccc(OCCc2ccc(Cl)cc2)cc1)c1cccnc1
79.3

* * *

Tested on: serum and liver lipid levels in rats
Experiment: Serum and liver lipid levels and relative liver weight in rats (100 mg/kg, 10 days)
Format: in vivo, Male rats of the Wistar strain
Settings: Table 2; 100 mg/kg p.o. 10 days; Mean ± S.E. (n = 9)
Please enter label 1 where Serum lipid levels PL is greater than or equal to 100 mg/dL, and label 0 where it is lower.

For orientation, consider the following solved cases.
smiles_repr=O=C(OCCc1ccc(OCCc2ccc(Cl)cc2)cc1)c1cccnc1 label_value="label 1"
smiles_repr=O=C(OCc1ccc(OCCc2ccc(Cl)cc2)cc1)c1cccnc1 label_value="label 1"
smiles_repr=O=C(OCCCCc1ccc(OCc2ccc(Cl)cc2)cc1)c1cccnc1 label_value="label 1"
smiles_repr=O=C(OCCc1ccc(OCc2ccc(Cl)cc2)cc1)c1cccnc1 label_value="label 1"

Can O=C(OCc1ccc(OCCCc2ccc(Cl)cc2)cc1)c1cccnc1 be said to have Serum lipid levels PL at or above 100 mg/dL?
label 0

Can O=C(OCc1ccc(OCCCCc2ccc(Cl)cc2)cc1)c1cccnc1 be said to have Serum lipid levels PL at or above 100 mg/dL?
label 0
